tested.target: dopamine D1 receptor (Macaca mulatta (Rhesus macaque), UniProt O77680)
Sequence (O77680 whole entry): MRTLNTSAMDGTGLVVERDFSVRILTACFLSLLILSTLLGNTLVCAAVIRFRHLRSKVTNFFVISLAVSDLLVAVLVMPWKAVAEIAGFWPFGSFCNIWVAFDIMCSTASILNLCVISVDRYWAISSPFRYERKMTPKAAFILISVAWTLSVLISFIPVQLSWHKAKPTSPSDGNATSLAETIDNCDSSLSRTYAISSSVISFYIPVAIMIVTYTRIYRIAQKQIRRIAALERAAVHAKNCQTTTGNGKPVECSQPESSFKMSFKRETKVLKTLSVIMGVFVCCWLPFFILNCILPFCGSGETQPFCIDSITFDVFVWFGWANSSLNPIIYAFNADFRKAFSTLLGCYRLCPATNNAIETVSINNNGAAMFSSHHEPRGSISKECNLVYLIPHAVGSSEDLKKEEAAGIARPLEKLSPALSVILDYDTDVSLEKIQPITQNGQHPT
assay.protocol: Affinity on dopamine D1 receptor, competition with [3H] SCH23390
Experimental: (1). Determination of the Affinity of Hexahydrodibenzo[a,g]Quinolizine Compound of General Formula I and Derivatives Thereof on Dopamine D1, Dopamine D2, 5-HT1A, and 5-HT2A Receptor. 1) The Experimental Method Different concentrations (10^−5 M-10^−11 M) of the compound of the invention and corresponding isotope receptor ligand as well as receptor protein were loaded into the reaction tube and incubated in 30° C. water bath for 60 minutes. The reaction was terminated in a refrigerator. […]
pKi: −log10 of the molar value.
Consider the following compounds and their measured pKi readings.
recorded.metric: pKi

[
  {
    "compound": "COc1cc2c(cc1OC)[C@@H]1Cc3cc(OC)c(OC)c(OC)c3CN1CC2 [DC037006]",
    "meas.value": 6.49
  },
  {
    "compound": "COc1cc2c(c(OC)c1)CN1CCc3cc(OC)c(OC)cc3[C@@H]1C2 [DC037075]",
    "meas.value": 7.19
  },
  {
    "compound": "COc1cc2c(c(OC)c1)CN1CCc3cc(OC)c(O)cc3[C@@H]1C2 [DC037079]",
    "meas.value": 8.29
  },
  {
    "compound": "COc1c(O)ccc2c1CN1CCc3cc4c(cc3[C@@H]1C2)OCCO4 [DC037082]",
    "meas.value": 8.12
  },
  {
    "compound": "COc1ccc2c(c1)CCN1Cc3c(cc(OC)c(OC)c3OC)CC21 (racemic) [DC037007]",
    "meas.value": 6.00
  },
  {
    "compound": "COc1cc(OC)c2c(c1CO)C[C@H]1c3cc4c(cc3CCN1C2)OCO4 [DC037077]",
    "meas.value": 6.74
  },
  {
    "compound": "COc1ccc(OC)c2c1C[C@H]1c3cc4c(cc3CCN1C2)OCCO4 [DC037032]",
    "meas.value": 7.60
  },
  {
    "compound": "COc1cc2c(cc1OC)C1Cc3cc(O)c(O)cc3CN1CC2 (racemic) [DC037022]",
    "meas.value": 6.30
  },
  {
    "compound": "COc1cc2c(cc1OC)[C@@H]1Cc3cc(C)cc(C)c3CN1CC2 [DC037017]",
    "meas.value": 6.47
  },
  {
    "compound": "c1c2c(cc3c1OCO3)CN1CCc3cc4c(cc3[C@@H]1C2)OCO4 [DC037012]",
    "meas.value": 6.83
  },
  {
    "compound": "COc1cc2c(cc1O)[C@@H]1Cc3c(OC)ccc(OC)c3CN1CC2 [DC037030]",
    "meas.value": 8.43
  },
  {
    "compound": "COc1cc2c(cc1OC)CN1CCc3cc(O)c(O)cc3C1C2 (racemic) [DC037024]",
    "meas.value": 6.13
  },
  {
    "compound": "COc1ccc(OC)c2c1C[C@H]1c3cc4c(cc3CCN1C2)OCO4 [DC037013]",
    "meas.value": 7.63
  },
  {
    "compound": "COc1cc2c(cc1O)[C@@H]1Cc3cc4c(cc3CN1CC2)OCO4 [DC037029]",
    "meas.value": 8.38
  },
  {
    "compound": "COc1cc2c(cc1OC)[C@@H]1Cc3c(OC)ccc(OC)c3CN1CC2 [DC037008]",
    "meas.value": 7.30
  },
  {
    "compound": "COc1cc2c(cc1O)[C@@H]1Cc3cc(C)cc(C)c3CN1CC2 [DC037031]",
    "meas.value": 7.54
  },
  {
    "compound": "COc1cc2c(cc1OC)C1Cc3c(OC)ccc(OC)c3CN1CC2 (racemic) [DC037003]",
    "meas.value": 6.61
  },
  {
    "compound": "COc1cc2c(c(OC)c1OC)CN1CCc3cc4c(cc3[C@@H]1C2)OCO4 [DC037016]",
    "meas.value": 6.42
  },
  {
    "compound": "COc1cc2c(cc1OC)C1Cc3cc(C)cc(C)c3CN1CC2 (racemic) [DC037018]",
    "meas.value": 5.84
  }
]
